Please go through the items and note down their Cmax.
Experiment: Cmax in rat at 10 mg/kg, po
Type: ADME, organism-based
Set-up: dose 10 mg/kg, route oral
Conditions: in vivo
Answer format: value, then unit.

Give its Cmax value. Item: COc1cc(N2CCN(C3COC3)CC2)ccc1Nc1nc(O[C@H]2CCOC(C)(C)C2)c2cc[nH]c2n1
4.43 µM

Give its Cmax value. Item: C[C@@H](Oc1cc(C(=O)N(C)C)ccc1Nc1nc(O[C@H]2CC[C@@](C)(O)CC2)c2c(Cl)c[nH]c2n1)C(F)(F)F
4.35 µM

Give its Cmax value. Item: COc1cc(N2CCN(C(=O)CO)CC2)ccc1Nc1nc(O[C@H]2CCOC(C)(C)C2)c2cc[nH]c2n1
2.53 µM
